test system: MS2 coat protein; test: apparent KD of MS2 coat protein; designed switch direction (-1 OFF switch, 1 ON switch): 1; higher = weaker reporter binding; settings: Eterna round: R95; input ligand: microRNA oligo, concentration not stated
Each entry below lists one item and its recorded apparent KD of MS2 coat protein value.
Numbers only here, please. The scale is nM.

{"construct_sequence": "AAAGCCCGUGCUAAGGAUAUGCGUACUCCUACAUGAGGAUCACCCAUGUCCCGCCGAAAAGGAAGGCAGAAGGUAGCACGGGCAA [Letiso] (puzzle: Same State 2)", "tested_on": "MS2 coat protein", "output_unit": "nM", "apparent KD of MS2 coat protein": 114}
{"construct_sequence": "AAGUAACAUGAGGAUCACCCAUGUGAGGUGAGCGUAGGAUAUCGAGGAGGAAGGGUGGAGCGAGAAGGACGAGAGG [JR_SS1_Sub099] (puzzle: Same State 1)", "tested_on": "MS2 coat protein", "output_unit": "nM", "apparent KD of MS2 coat protein": 189}

For UCAAGCGAGAGGCUCGUCUUAUGUUUGGUACAUGAGGAUCACCCAUGUUAGGGACGAUUUAGUUAGAUGGAAUGGAG [JR_SHM208A_Sub034] (puzzle: Sensor for hsa-mir-208a) , write its apparent KD of MS2 coat protein. 148

Data provenance: the supplement of paper PMC9170038
